Source: the RNAGym collection of RNA variant scans (doi:10.1038/nmeth.2970)

B1: NELF-E aptamer (parent)
chain: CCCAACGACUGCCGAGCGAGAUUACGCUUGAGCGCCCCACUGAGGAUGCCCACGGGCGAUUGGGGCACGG

- Variants of: B1
- assay.procedure: HiTS-RAP
- test.settings: with NELF-E (Drosophila)
Would you kindly list pKd for each of these variants?
Please note pKd is a logarithmic value: minus log10 of concentration in mol/L. Answer with that number alone.

Exam item: pKd for `A24C` ?
Marked response: 8.23

Exam item: pKd for C13G G26U ?
Marked response: 8.26

Exam item: pKd for `U28A` ?
Marked response: 8.35

Exam item: pKd for U10G A52G ?
Marked response: 8.37

Exam item: pKd for C12G G34A ?
Marked response: 8.13

Exam item: pKd for U10G U29C ?
Marked response: 8.33

Exam item: pKd for U29A A39G ?
Marked response: 8.24

Exam item: pKd for G11U C17G ?
Marked response: 8.23

Exam item: pKd for A4G G65C ?
Marked response: 7.79

Exam item: pKd for C12A C13G ?
Marked response: 8.27

Exam item: pKd for C9U U22G ?
Marked response: 8.26

Exam item: pKd for G20A U29G ?
Marked response: 8.30

Exam item: pKd for U29G C37A ?
Marked response: 7.83

Exam item: pKd for A8G G30U ?
Marked response: 8.33

Exam item: pKd for A4G C13U ?
Marked response: 8.32

Exam item: pKd for C6U A59G ?
Marked response: 7.16

Exam item: pKd for A4U G34A ?
Marked response: 8.21

Exam item: pKd for A4G C33G ?
Marked response: 8.24

Exam item: pKd for C12G C25G ?
Marked response: 8.35

Exam item: pKd for A8U G63U ?
Marked response: 7.95

Exam item: pKd for A5G G34A ?
Marked response: 8.23

Exam item: pKd for A5G U22G ?
Marked response: 8.23

Exam item: pKd for U10G C51U ?
Marked response: 8.16

Exam item: pKd for A31G A52U ?
Marked response: 7.67

Exam item: pKd for A5U U61A ?
Marked response: 7.39

Exam item: pKd for C13G A39U ?
Marked response: 7.72

Exam item: pKd for A4U C12U ?
Marked response: 8.26

Exam item: pKd for C12G G14U ?
Marked response: 8.20

Exam item: pKd for G14U A19G ?
Marked response: 8.20

Exam item: pKd for U22G U29A ?
Marked response: 8.24

Exam item: pKd for A24G G48A ?
Marked response: 7.85

Exam item: pKd for A24G A39G ?
Marked response: 7.99

Exam item: pKd for C12G A15U ?
Marked response: 8.20

Exam item: pKd for U10G A67C ?
Marked response: 8.30

Exam item: pKd for G16U C25G ?
Marked response: 8.13

Exam item: pKd for A8U G44U ?
Marked response: 7.59

Exam item: pKd for U10G A46G ?
Marked response: 7.41

Exam item: pKd for C6G C49G ?
Marked response: 8.06
